Value source: patent US20240002388A1

# SYSTEM: RIPK1 recombination protein (Homo sapiens (Human), UniProt Q13546)
# Sequence (Q13546 other isoform, or with tags, fused parts or gaps): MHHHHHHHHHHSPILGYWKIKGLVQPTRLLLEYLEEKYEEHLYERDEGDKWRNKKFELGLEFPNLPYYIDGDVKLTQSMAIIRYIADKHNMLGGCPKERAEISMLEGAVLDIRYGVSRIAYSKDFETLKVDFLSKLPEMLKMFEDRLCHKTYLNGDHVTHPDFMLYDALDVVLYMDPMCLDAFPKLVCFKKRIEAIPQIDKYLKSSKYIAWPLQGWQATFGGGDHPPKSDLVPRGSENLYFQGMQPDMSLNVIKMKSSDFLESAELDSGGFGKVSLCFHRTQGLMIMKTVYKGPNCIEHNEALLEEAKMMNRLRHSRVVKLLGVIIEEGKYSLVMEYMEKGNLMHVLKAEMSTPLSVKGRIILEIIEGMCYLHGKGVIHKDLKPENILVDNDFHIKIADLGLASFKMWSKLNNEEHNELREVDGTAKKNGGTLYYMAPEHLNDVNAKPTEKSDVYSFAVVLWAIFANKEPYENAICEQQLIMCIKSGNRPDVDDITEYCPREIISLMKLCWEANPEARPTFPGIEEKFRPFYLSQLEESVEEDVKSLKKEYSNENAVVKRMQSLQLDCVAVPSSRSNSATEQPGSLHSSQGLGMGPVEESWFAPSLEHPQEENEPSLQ
# PROTOCOL_DETAILS: RIPK1 kinase activity assay (ADP-Glo)
# MEASUREMENT_SETUP: RIPK1 kinase activity, ADP-Glo, 10 μM ATP
I'd be grateful if you could share measured IC50 for these entries.
Field format: number, assumed nM, no unit text.

I have this compound here, "Cn1cncc(-c2ccc(C3(NC(=O)c4ncc(Cc5ccccc5)o4)CC3)cc2)c1=O" , and I need its recorded IC50.
26

For the compound shown here, "CC(C)n1cncc(-c2ccc(C3(NC(=O)c4nc5n(n4)[C@H](c4ccccc4)CC5)CC3)cc2)c1=O" , give the reported IC50.
25

Which IC50 is listed for "CC(C)n1cncc(-c2ccc(C3(NC(=O)c4ncc5cnn(C(C)C)c5n4)CC3)c(F)c2Cl)c1=O" ?
72

What value of IC50 has been reported for the following compound? "CC[C@H](C)n1cncc(-c2ccc(C3(NC(=O)c4ncc5cnn(C(C)C)c5n4)CC3)cc2)c1=O"
32

* * *

Consider the following molecules; for each one, report its IC50.
# SYSTEM: RIPK1 recombination protein (Homo sapiens (Human), UniProt Q13546)
# PROTOCOL_DETAILS: RIPK1 kinase activity assay (ADP-Glo)
# MEASUREMENT_SETUP: RIPK1 kinase activity, ADP-Glo, 10 μM ATP
Give the number; nM is assumed, so skip it.

# get_value(readout='IC50', item= "CC(C)Cc1nc(C(=O)NC2(c3ccc(-c4cncn(C(C)C)c4=O)cc3)CC2)ncc1Cl" )
55

Reported IC50, molecule "CC(C)n1ncc2cnc(C(=O)NC3(c4ccc(-c5cncn(C6(C)CC6)c5=O)cc4)CC3)nc21" : ____
33

Which IC50 reading was recorded for the molecule "CC(C)n1cncc(-c2ccc(C3(NC(=O)c4ncc5cnn([C@H](C)C6CC6)c5n4)CC3)cc2)c1=O" ?
48

Query (molecule): "CC(C)n1cncc(-c2ccc(C3(NC(=O)c4ncc5cnn(CC6CC6)c5n4)CC3)c(F)c2)c1=O" ; field requested: IC50
65

# IC50 lookup, item CC(C)n1ncc2cnc(C(=O)NC3(c4ccc(-c5cncn(C6CCOC6)c5=O)cc4)CC3)nc21 (stereo in doubt) [Compound 80]
42

Endpoint output: IC50 of "CC(C)n1cncc(-c2ccc(C3(NC(=O)c4ncc5cnn(C(C)C)c5n4)CC3)c(F)c2F)c1=O" . Value?
35

Look at this molecule and give its reported IC50. "CC(C)n1ncc2cnc(C(=O)NC3(c4ccc(-c5cncn([C@H](C)C(F)(F)F)c5=O)cc4)CC3)nc21"
59

# lookup: IC50 of "Cn1cncc(-c2ccc(C3(NC(=O)c4n[nH]c(Cc5ccccc5)n4)CC3)c(F)c2)c1=O"
53

Can you share its IC50? I mean this molecule: "C[C@H](c1ccccc1)n1cnc(C(=O)NC2(c3ccc(-c4cncn(C)c4=O)cc3)CC2)n1"
23

Endpoint output: IC50 of "CC(C)n1ncc2cnc(C(=O)NC3(c4ccc(-c5cncn([C@@H](C)C6CC6)c5=O)cc4)CC3)nc21" . Value?
30

IC50 for "CC(C)n1ncc2cnc(C(=O)NC3(c4ccc(-c5cncn(CC(F)(F)F)c5=O)cc4)CC3)nc21" ?
48

Suppose we examine the molecule "CC(C)n1ncc2cnc(C(=O)NC3(c4ccc(-c5cncn(C)c5=O)cc4)CC3)nc21" ; what IC50 value has been reported?
28

Requested read-out: IC50. Entry: "CC(C)n1ncc2cnc(C(=O)NC3(c4ccc(-c5cncn(C6CCOCC6)c5=O)cc4)CC3)nc21"
42

Query (molecule): "C[C@@H](c1ccccc1)c1nnc(C(=O)NC2(c3ccc(-c4cncn(C)c4=O)cc3)CC2)[nH]1" ; field requested: IC50
139

May I ask what IC50 has been recorded for "Cn1cncc(-c2ccc(C3(NC(=O)c4ncc5cnn(-c6ccccc6)c5n4)CC3)cc2)c1=O" ?
26

* * *

# System: U937 cell line (human histiocytic lymphoma cell line)
# PROTOCOL_DETAILS: U937 cell viability assay (TNF-α + Z-VAD-FMK induced necroptosis)
# Format: cell-based
# MEASUREMENT_SETUP: Homo sapiens, U-937; U937 cells, hTNF-α 0.1 μg/mL + Z-VAD-FMK 50 μM, 20 hours, CellTiter-Glo
So I've got a bunch of compounds here, and I need their log10 of IC50 values.
Log scale reminder: IC50 in nM, then log10 taken.

Form field - read-out: log10 of IC50; system: U937 cell line (human histiocytic lymphoma cell line); submitted item: "CC(C)n1ncc2cnc(C(=O)NC3(c4ccc(-c5cncn(C)c5=O)cc4)CC3)nc21"
1.32

Value wanted: log10 of IC50 (U937 cell line (human histiocytic lymphoma cell line)) of entry "Cc1cc(C2(NC(=O)c3ncc4cnn(C(C)C)c4n3)CC2)ccc1-c1cncn(C)c1=O"
2.01

Quick check: log10 of IC50 on U937 cell line (human histiocytic lymphoma cell line), item "CC(C)n1ncc2cnc(C(=O)NC3(c4ccc(-c5cncn(C)c5=O)cc4F)CC3)nc21" ?
1.08

Provide value of log10 of IC50 for this record tested with U937 cell line (human histiocytic lymphoma cell line): "Cn1cncc(-c2ccc(C3(NC(=O)c4n[nH]c(Cc5ccccc5)n4)CC3)c(F)c2)c1=O"
1.59

Find log10 of IC50 (U937 cell line (human histiocytic lymphoma cell line)) for the entry "CC(C)n1ncc2cnc(C(=O)NC3(c4ccc(-c5cncn([C@H](C)C(F)(F)F)c5=O)cc4)CC3)nc21"
0.78

What log10 of IC50 appears in the records for this compound with U937 cell line (human histiocytic lymphoma cell line)? "CC(C)n1cncc(-c2ccc(C3(NC(=O)c4nc5n(n4)[C@H](c4ccccc4)CC5)CC3)cc2)c1=O"
0.30

// map "CC(C)n1cncc(-c2ccc(C3(NC(=O)c4ncn(Cc5ccccc5)n4)CC3)cc2)c1=O" to recorded log10 of IC50 (system: U937 cell line (human histiocytic lymphoma cell line))
0.00

Form entry - test system: U937 cell line (human histiocytic lymphoma cell line); read-out: log10 of IC50; compound: "CC(C)n1cncc(-c2ccc(C3(NC(=O)c4ncc5cnn(CC6CCC6)c5n4)CC3)cc2)c1=O"
0.30

I'm curious: which log10 of IC50 was measured for "CC(C)n1ncc2cnc(C(=O)NC3(c4ccc(-c5cncn(C)c5=O)c(F)c4)CC3)nc21" tested on U937 cell line (human histiocytic lymphoma cell line)?
1.76

Item: "CC(C)n1ncc2cnc(C(=O)NC3(c4ccc(-c5cncn(C6CCOCC6)c5=O)cc4)CC3)nc21" Test system: U937 cell line (human histiocytic lymphoma cell line) Read-out: log10 of IC50 Value: ?
1.00

Item: CC(C)n1ncc2cnc(C(=O)NC3(c4ccc(-c5cncn(C6CCOC6)c5=O)cc4)CC3)nc21 (stereo in doubt) [Compound 80] Test system: U937 cell line (human histiocytic lymphoma cell line) Read-out: log10 of IC50 Value: ?
0.95

Short answer please: log10 of IC50, U937 cell line (human histiocytic lymphoma cell line), entry "Cn1cncc(-c2ccc(C3(NC(=O)c4ncc(Cc5ccccc5)o4)CC3)cc2)c1=O"
0.90

Quick check: log10 of IC50 on U937 cell line (human histiocytic lymphoma cell line), item "CC(C)n1cncc(-c2ccc(C3(NC(=O)c4ncc5cnn(C(C)C)c5n4)CC3)c(F)c2)c1=O" ?
0.85

I'm curious: which log10 of IC50 was measured for "CC(C)n1ncc2cnc(C(=O)NC3(c4ccc(-c5cncn([C@H](C)C6CC6)c5=O)cc4)CC3)nc21" tested on U937 cell line (human histiocytic lymphoma cell line)?
0.00

What value of log10 of IC50 on U937 cell line (human histiocytic lymphoma cell line) does "CC(C)n1ncc2cnc(C(=O)NC3(c4cc(F)c(-c5cncn(CC6CC6)c5=O)cc4F)CC3)nc21" have?
0.48

So what log10 of IC50 did "CC(C)Cc1nc(C(=O)NC2(c3ccc(-c4cncn(C)c4=O)cc3)CC2)ncc1Cl" get with U937 cell line (human histiocytic lymphoma cell line)?
1.32

Form entry - test system: U937 cell line (human histiocytic lymphoma cell line); read-out: log10 of IC50; compound: "C[C@H](n1cncc(-c2ccc(C3(NC(=O)c4ncc5cnn(CC6CC6)c5n4)CC3)c(F)c2)c1=O)C(F)(F)F"
0.48

I'm curious: which log10 of IC50 was measured for "CC(C)n1ncc2cnc(C(=O)NC3(c4ccc(-c5cncn([C@H]6C[C@H](F)C6)c5=O)cc4)CC3)nc21" tested on U937 cell line (human histiocytic lymphoma cell line)?
1.04

Lab note: need log10 of IC50 for "CC(C)n1cncc(-c2ccc(C3(NC(=O)c4ncc5cnn(C(C)C)c5n4)CC3)cc2)c1=O" on U937 cell line (human histiocytic lymphoma cell line), anyone have it?
0.48

Kindly state the measured log10 of IC50 obtained for "CC(C)n1cncc(-c2ccc(C3(NC(=O)c4nnc(Cc5ccccc5)o4)CC3)cc2)c1=O" with U937 cell line (human histiocytic lymphoma cell line).
0.60

Which log10 of IC50 is reported with U937 cell line (human histiocytic lymphoma cell line) for this entry: CC(C#N)n1cncc(-c2ccc(C3(NC(=O)c4ncc5cnn(C(C)C)c5n4)CC3)cc2)c1=O (stereo in doubt) ?
1.23

Provide value of log10 of IC50 for this record tested with U937 cell line (human histiocytic lymphoma cell line): "O=C(NC1(c2ccc(-c3cncn(CC4CC4)c3=O)cc2)CC1)c1ncc2cnn(CC3CC3)c2n1"
0.30

Param readout= log10 of IC50; system= U937 cell line (human histiocytic lymphoma cell line); entry= CC(C)n1ncc2cnc(C(=O)NC3(c4ccc(-c5cncn([C@@H](C)C(F)(F)F)c5=O)cc4F)CC3)nc21 (stereo in doubt) ; returns value.
0.30

Query log10 of IC50 on U937 cell line (human histiocytic lymphoma cell line) for "CC[C@H](C)n1cncc(-c2ccc(C3(NC(=O)c4ncc5cnn(C(C)C)c5n4)CC3)cc2)c1=O"
0.30

Give the reported log10 of IC50 for "CCn1cncc(-c2ccc(C3(NC(=O)c4ncc5cnn(C(C)C)c5n4)CC3)cc2)c1=O" (system: U937 cell line (human histiocytic lymphoma cell line)).
1.15
